target_desc: Transcriptional activator Myb (Homo sapiens)
experiment: ATG_Myb_CIS: Attagene CIS-FACTORIAL HepG2 Assay for human Myeloblastosis (Myb) Proto-Oncogene Transcription Factor (AID 2282986)
reported_conditions: HepG2 Attagene CIS-FACTORIAL Myb reporter transcription; actives raise or lower the signal
Calls of active or inactive are those of the source. How the source made its calls: active means hit-call score of the fitted dose curve at least 0.9, where 1 is the maximum; inactive means score below 0.9.
parameter: outcome

Worked cases, outcome given:
compound: CCCCCCCCCCCCCCCS(=O)(=O)Oc1ccccc1
outcome: inactive
//
compound: CCCCCCC(=O)O
outcome: inactive
//
compound: CCc1ccc(CCOc2ccc(CC3SC(=O)NC3=O)cc2)nc1 (stereo not given)
outcome: inactive
//
compound: Cc1oc(-c2ccccc2)nc1CCOc1ccc(C[C@H](Nc2ccccc2C(=O)c2ccccc2)C(=O)O)cc1
outcome: inactive
//
compound: O=C(OCCOCCOC(=O)c1ccccc1)c1ccccc1
outcome: inactive

Record summary for O=C(O)c1ccccc1C(c1ccc(O)cc1)c1ccc(O)cc1 : reported outcome = inactive

Record summary for CCCCCCCCCCCCc1ccccc1S(=O)(=O)O : reported outcome = inactive

Record summary for c1ccc2c(c1)Cc1ccccc1-2 : reported outcome = inactive

The measurements presented in this section are drawn from PubChem BioAssay (EPA / NIEHS).
